System: Mus musculus
protocolSummary: Toxicity in ovariectomized ICR mouse assessed as change in uterine weight at 110.3 nmol/kg, po after 4 weeks
Format: organism-based
conditions: in vivo, 672 h
Peptide text beside a SMILES is read from it. * marks the point of attachment. Acetyl(estradiol-3-yloxy) = C[C@]12CC[C@@H]3c4ccc(OCC(=O)*)cc4CC[C@H]3[C@@H]1CC[C@@H]2O
quantityName: Activity (g)
Give the value in g but do not write g after it.

[in] Dear colleague, I am looking for the recorded Activity of the following compound: C[C@]12CC[C@@H]3c4ccc(OCC(=O)N[C@@H](CCCNC(=N)N)C(=O)NCC(=O)N[C@@H](CC(=O)O)C(=O)N[C@@H](Cc5ccccc5)C(=O)O)cc4CC[C@H]3[C@@H]1CC[C@@H]2O ({Acetyl(estradiol-3-yloxy)}-RGDF-OH)
[out] 0.067
